The values you see were collected from patent US9789110B2.

Target: hDGAT2 (Homo sapiens (Human), UniProt Q96PD7)
Sequence (Q96PD7 whole entry): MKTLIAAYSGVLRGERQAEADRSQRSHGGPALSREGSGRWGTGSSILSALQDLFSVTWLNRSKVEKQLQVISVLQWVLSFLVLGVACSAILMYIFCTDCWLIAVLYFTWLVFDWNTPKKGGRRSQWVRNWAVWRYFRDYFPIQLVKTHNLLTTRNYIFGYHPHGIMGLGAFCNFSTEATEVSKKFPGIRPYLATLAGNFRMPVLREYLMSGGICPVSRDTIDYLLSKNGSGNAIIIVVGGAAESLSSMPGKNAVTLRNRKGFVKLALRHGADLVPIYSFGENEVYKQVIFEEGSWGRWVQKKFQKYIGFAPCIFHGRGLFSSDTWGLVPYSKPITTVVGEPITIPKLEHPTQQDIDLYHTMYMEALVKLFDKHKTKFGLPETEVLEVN
Assay: In vitro DGAT2 assay, hDGAT2 membrane fraction, [14C]decanoyl-CoA scintillation readout
Type: biochemical
Details: geometric mean; FLAG-hDGAT2 membrane fraction; 2 h preincubation; read-out: IC50 for inhibition of DGAT2
pIC50: −log10 of the molar value.
ASSAY READOUT: pIC50

Before answering, review these 10 worked examples.
CCOc1ccccc1O[C@@H]1CCCN(c2ncc(C(=O)NCc3cocn3)cn2)C1 ... 7.95
CCOc1ccccc1O[C@@H]1CCCN(c2ncc(C(=O)N3C[C@H]4C[C@@H]3CO4)cn2)C1 ... 7.67
CCOc1ccccc1O[C@@H]1CCCN(c2ncc(C(=O)NCCC(N)=O)cn2)C1 ... 6.83
CCOc1ccccc1O[C@@H]1CCCN(c2ncc(C(=O)N3CCCC3)cn2)C1 ... 7.61
CCOc1ccccc1O[C@@H]1CCCN(c2ncc(C(=O)N3CC[C@H]3C(N)=O)cn2)C1 ... 6.77
CCOc1ccccc1O[C@@H]1CCCN(c2ncc(C(=O)NCCCc3nn[nH]n3)cn2)C1 ... 6.37
CCOc1ccccc1O[C@@H]1CCCN(c2ncc(C(=O)Nc3ccon3)cn2)C1 ... 7.95
CCOc1ccccc1O[C@@H]1CCCN(c2ncc(C(=O)N3CC(OC)C3)cn2)C1 ... 7.84
CCOc1ccccc1O[C@@H]1CCCN(c2ncc(C(=O)NCc3ccc(C(C)C(=O)O)cc3)cn2)C1 (single isomer, unassigned) ... 8.62
CCOc1ccccc1O[C@@H]1CCCN(c2ccc(C(=O)NCc3cccc(C(=O)O)c3)cn2)C1 ... 6.83

[I] CCOc1ccccc1O[C@@H]1CCCN(c2ncc(C(=O)N3CC(Oc4ccccc4)C3)cn2)C1
[II] CCOc1ccccc1O[C@@H]1CCCN(c2ncc(C(=O)NCc3cccc(C(=O)O)c3)cn2)C1
Which has the higher pIC50, I or II ? I would appreciate it if you answered with the label of your choice. I

[a] CCNC(=O)c1cnc(N2CCC[C@@H](Oc3ccc(C#N)cc3OCC)C2)nc1
[b] CCOc1ccccc1O[C@@H]1CCCN(c2ncc(C(=O)N[C@H]3CNC(=O)C3)cn2)C1
From the items above, decide which of a and b has the lower pIC50 reading. I would appreciate it if you answered with the label of your choice. a

[I] CCOc1ccccc1O[C@@H]1CCCN(c2ncc(C(=O)N3Cc4cnn(C)c4C3)cn2)C1
[II] CCOc1ccccc1O[C@@H]1CCCN(c2ncc(C(=O)NCc3cc(C(=O)O)ccc3F)cn2)C1
Which has the higher pIC50, I or II ? I would appreciate it if you answered with the label of your choice. I

[P] CCOc1ccccc1O[C@@H]1CCCN(c2ncc(C(=O)Nc3cncnc3)cn2)C1
[Q] CCOc1ccccc1O[C@@H]1CCCN(c2ncc(C(=O)NCc3cc(C(=O)O)cnc3C)cn2)C1
[R] CCOc1ccccc1O[C@@H]1CCCN(c2ncc(C(=O)NCc3cc(C(=O)O)ccc3OC)cn2)C1
Ordering: ascending pIC50. Output spec: labels arranged per the requested ranking. R, Q, P
(R: 6.91, Q: 7.21, P: 7.48)

[A] CCOc1ccccc1O[C@@H]1CCCN(c2ncc(C(=O)NCc3cc(C)cc(C(=O)O)c3)cn2)C1
[B] CCOc1ccccc1O[C@@H]1CCCN(c2ncc(C(=O)NCc3cnccn3)cn2)C1
[C] CCOc1ccccc1O[C@@H]1CCCN(c2ncc(C(=O)NCc3cccc(CC(=O)O)c3)cn2)C1
[D] CCOc1ccccc1O[C@@H]1CCCN(c2ncc(C(=O)NC(C)(C)CC(N)=O)cn2)C1
Rank order required: pIC50, descending. Output spec: labels arranged per the requested ranking. D, B, A, C

[P] CCOc1ccccc1O[C@@H]1CCCN(c2ncc(C(=O)NCCn3cncn3)cn2)C1
[Q] CCOc1ccccc1O[C@@H]1CCCN(c2ncc(C(=O)NCC(=O)NC)cn2)C1
From the items above, decide which of P and Q has the lower pIC50 reading. I would appreciate it if you answered with the label of your choice. Q

[1] CCOc1ccccc1O[C@@H]1CCCN(c2ncc(C(=O)NCCc3cn[nH]c3O)cn2)C1
[2] CCOc1ccccc1O[C@@H]1CCCN(c2ncc(C(=O)NCCS(C)(=O)=O)cn2)C1
Which has the higher pIC50, 1 or 2 ? I would appreciate it if you answered with the label of your choice. 1
(1: 7.53, 2: 6.99)

[a] CCNC(=O)c1cnc(N2CCC[C@@H](Oc3ccccc3OCC)C2)nc1
[b] CCOc1ccccc1O[C@@H]1CCCN(c2ncc(C(=O)NCc3cc(OC)cc(C(=O)O)c3)cn2)C1
[c] CCOc1ccccc1O[C@@H]1CCCN(c2ncc(C(=O)NCc3ccccc3)cn2)C1
Ordering: ascending pIC50. Output spec: labels arranged per the requested ranking. b, a, c

###

Biological target: DGAT2 in primary human hepatocytes (Homo sapiens (Human), UniProt Q96PD7)
Sequence (Q96PD7 whole entry): as above
Experiment: IC50 for DGAT2 inhibitors in human hepatocytes, [14C]-glycerol incorporation into lipids
Assay type: cell-based
Details: average; cryopreserved human hepatocytes; selective DGAT1 inhibitor 3 μM in all wells; 3 hour incubation; read-out: IC50 in primary human hepatocytes
Protocol: For evaluation of the effects of DGAT2 inhibitors in a cell-based setting, cryopreserved human hepatocytes (Lot QOC and NON, Celsis, Chicago, Ill.) were thawed and plated onto type I collagen-coated plates according to the manufacturer's instructions. […] The half maximal inhibitory concentrations (IC50 values) were determined using GraphPad Prism (GraphPad Software, Inc., La Jolla, Calif.). […]
ASSAY READOUT: IC50 (nM)

CCOc1ccccc1O[C@@H]1CCCN(c2ncc(C(=O)NCc3cc(C(=O)O)ccc3F)cn2)C1 ... 10.4
CCOc1ccccc1O[C@@H]1CCCN(c2ncc(C(=O)NCCc3cn[nH]c3O)cn2)C1 ... 37.8
CCOc1ccccc1O[C@@H]1CCCN(c2ncc(C(=O)NCc3ccc(C(C)C(=O)O)cc3)cn2)C1 (single isomer, unassigned) ... 78.8
CCOc1ccccc1O[C@@H]1CCCN(c2ncc(C(=O)N3CC[C@H]3C(N)=O)cn2)C1 ... 59.8

[A] CCOc1ccccc1O[C@@H]1CCCN(c2ncc(C(=O)NCc3ccc(C(=O)O)cc3C)cn2)C1
[B] CCOc1ccccc1O[C@@H]1CCCN(c2ncc(C(=O)NCc3cc(C(=O)O)cnc3C)cn2)C1
[C] CCNC(=O)c1cnc(N2CCC[C@@H](Oc3ccccc3OCC)C2)nc1
Ordering: ascending IC50. Output spec: labels arranged per the requested ranking. C, A, B
(C: 6.6 nM, A: 20.7 nM, B: 67.5 nM)

###

Target: DGAT2 in primary human hepatocytes (Homo sapiens (Human))
Assay: IC50 for DGAT2 inhibitors in human hepatocytes, [14C]-glycerol incorporation into lipids
Type: cell-based
Conditions: average; cryopreserved human hepatocytes; selective DGAT1 inhibitor 3 μM in all wells; 3 hour incubation; read-out: IC50 in primary human hepatocytes
pIC50: −log10 of the molar value.
ASSAY READOUT: pIC50

Before answering, review these 3 worked examples.
CCNC(=O)c1cnc(N2CCC[C@@H](Oc3ccc(C#N)cc3OCC)C2)nc1 ... 7.70
CCOc1ccccc1O[C@@H]1CCCN(c2ncc(C(=O)NCc3cccc(C(=O)O)c3)cn2)C1 ... 7.95
CCOc1ccccc1O[C@@H]1CCCN(c2ncc(C(=O)NCc3cc(C)cc(C(=O)O)c3)cn2)C1 ... 7.35

[I] CCOc1ccccc1O[C@@H]1CCCN(c2ncc(C(=O)NCc3ccnc(C(=O)O)c3)cc2F)C1
[II] CCOc1ccccc1O[C@@H]1CCCN(c2ncc(C(=O)NCc3cc(OC)cc(C(=O)O)c3)cn2)C1
[III] CCOc1ccccc1O[C@@H]1CCCN(c2ncc(C(=O)NCc3cc(C(=O)O)ccc3OC)cn2)C1
[IV] CCOc1ccccc1O[C@@H]1CCCN(c2ncc(C(=O)NCc3ccc(C(=O)O)cc3)cn2)C1
[V] CCOc1ccccc1O[C@@H]1CCCN(c2ccc(C(=O)NCc3cccc(C(=O)O)c3)cn2)C1
Ordering: ascending pIC50. Output spec: labels arranged per the requested ranking. IV, I, V, II, III
(IV: 6.94, I: 7.29, V: 7.72, II: 7.94, III: 8.17)

###

Target: DGAT2 in primary human hepatocytes (Homo sapiens (Human))
Test: IC50 for DGAT2 inhibitors in human hepatocytes, [14C]-glycerol incorporation into lipids
Type: cell-based
Settings: average; cryopreserved human hepatocytes; selective DGAT1 inhibitor 3 μM in all wells; 3 hour incubation; read-out: IC50 in primary human hepatocytes
Description: For evaluation of the effects of DGAT2 inhibitors in a cell-based setting, cryopreserved human hepatocytes (Lot QOC and NON, Celsis, Chicago, Ill.) were thawed and plated onto type I collagen-coated plates according to the manufacturer's instructions. […] The half maximal inhibitory concentrations (IC50 values) were determined using GraphPad Prism (GraphPad Software, Inc., La Jolla, Calif.). […]
pIC50: −log10 of the molar value.
ASSAY READOUT: pIC50

CCOc1ccccc1O[C@@H]1CCCN(c2ncc(C(=O)NCc3nc(=O)[nH][nH]3)cn2)C1 ... 7.09

[I] CCOc1ccccc1O[C@@H]1CCCN(c2ncc(C(=O)NCc3cc(C(=O)O)ccc3C)cn2)C1
[II] CCOc1ccccc1O[C@@H]1CCCN(c2ncc(C(=O)N[C@H](C)c3cccc(C(=O)O)c3)cn2)C1
Which has the higher pIC50, I or II ? I would appreciate it if you answered with the label of your choice. II
(II: 7.53, I: 7.24)
